Molecular target: recombinant human His-ATG7 enzyme (Homo sapiens (Human), UniProt O95352)
Sequence (O95352 whole entry): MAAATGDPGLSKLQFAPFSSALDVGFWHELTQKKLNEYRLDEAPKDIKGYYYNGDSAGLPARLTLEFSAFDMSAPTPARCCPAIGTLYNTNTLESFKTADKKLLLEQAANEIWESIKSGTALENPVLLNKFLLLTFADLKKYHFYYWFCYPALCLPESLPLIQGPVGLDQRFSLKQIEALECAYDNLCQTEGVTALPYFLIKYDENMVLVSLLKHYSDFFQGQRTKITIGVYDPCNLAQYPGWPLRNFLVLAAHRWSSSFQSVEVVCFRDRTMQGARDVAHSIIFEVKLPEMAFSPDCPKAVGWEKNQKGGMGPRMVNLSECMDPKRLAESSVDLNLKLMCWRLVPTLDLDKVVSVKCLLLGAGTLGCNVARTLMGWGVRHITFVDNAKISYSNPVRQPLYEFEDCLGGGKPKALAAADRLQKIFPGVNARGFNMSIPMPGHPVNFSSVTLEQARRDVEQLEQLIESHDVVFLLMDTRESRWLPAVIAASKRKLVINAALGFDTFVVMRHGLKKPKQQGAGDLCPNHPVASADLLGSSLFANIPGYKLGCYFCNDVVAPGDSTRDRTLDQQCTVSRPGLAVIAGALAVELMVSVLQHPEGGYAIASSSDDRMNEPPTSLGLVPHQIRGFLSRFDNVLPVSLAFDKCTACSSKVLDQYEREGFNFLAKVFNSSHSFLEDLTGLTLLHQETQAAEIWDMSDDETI
Test: ATG7 Enzyme Assay (HTRF/FRET, ATG3-GST and Flag-Gabarap)
pIC50: −log10 of the molar value.
pIC50: recorded values
Measurement Type: pIC50

{"Molecule": "Nc1ncnc2c1c(I)nn2[C@@H]1O[C@H](COS(N)(=O)=O)[C@@H](O)[C@H]1O [Compound I-79]", "Measurement Type": "pIC50", "Assay Value": "> 7.70"}
{"Molecule": "Nc1ncnc2c1c(Sc1nnc3ccccn13)nn2[C@@H]1O[C@H](COS(N)(=O)=O)[C@@H](O)[C@@H]1F [Compound I-156]", "Measurement Type": "pIC50", "Assay Value": "6.30 to 7.00"}
{"Molecule": "Nc1ncnc2c1c(SCc1ccc(F)cc1)nn2[C@@H]1O[C@H](COS(N)(=O)=O)[C@@H](O)[C@H]1O [Compound I-63]", "Measurement Type": "pIC50", "Assay Value": "7.30 to 7.70"}
{"Molecule": "CCC(C)Sc1nn([C@@H]2O[C@H](COS(N)(=O)=O)[C@@H](O)[C@@H]2F)c2ncnc(N)c12 (single isomer, unassigned) [Compound I-136a]", "Measurement Type": "pIC50", "Assay Value": "7.00 to 7.30"}

###

Target: recombinant human His-ATG7 enzyme (Homo sapiens (Human))
Assay: ATG7 Enzyme Assay (HTRF/FRET, ATG3-GST and Flag-Gabarap)
Assay type: biochemical
Conditions: Concentration 0.069 μM; read-out: Percent Inhibition

{"Compound Structure": "COCC#Cc1nn([C@@H]2O[C@H](COS(N)(=O)=O)[C@@H](O)[C@H]2O)c2ncnc(N)c12", "Assay System": "recombinant human His-ATG7 enzyme (Homo sapiens (Human))", "inhibition at 0.069 µM, %": 9}
{"Compound Structure": "Nc1ncnc2c1c(Oc1ccccc1)nn2[C@@H]1O[C@H](COS(N)(=O)=O)[C@@H](O)[C@H]1O", "Assay System": "recombinant human His-ATG7 enzyme (Homo sapiens (Human))", "inhibition at 0.069 µM, %": 7}
{"Compound Structure": "CCOc1nn([C@@H]2O[C@H](COS(N)(=O)=O)[C@@H](O)[C@H]2O)c2ncnc(N)c12", "Assay System": "recombinant human His-ATG7 enzyme (Homo sapiens (Human))", "inhibition at 0.069 µM, %": 23}
{"Compound Structure": "CC#Cc1nn([C@@H]2O[C@H](COS(N)(=O)=O)[C@@H](O)[C@H]2O)c2ncnc(N)c12", "Assay System": "recombinant human His-ATG7 enzyme (Homo sapiens (Human))", "inhibition at 0.069 µM, %": 17}

###

Target: recombinant human His-ATG7 enzyme (Homo sapiens (Human))
Test: ATG7 Enzyme Assay (HTRF/FRET, ATG3-GST and Flag-Gabarap)
Format: biochemical
Conditions: Concentration 0.123 μM; read-out: Percent Inhibition
Description: Example 97: ATG7 Enzyme Assay The total volume of the ATG7 enzymatic assay is 50 μL and contains 50 mM HEPES Hemisodium (pH 7.5), 0.05% BSA, 0.01% Tween-20, 25 mM NaCl, 5 mM MgCl2, 10 μM ATP, 250 μM GSH, 5 nM ATG3-GST, 5 nM Flag-Gabarap, 100 μM TCEP and 0.15 nM recombinant human His-ATG7 enzyme. […] After incubation for 2 hours at 24° C., quantification of FRET is performed on the Pherostar™ (BMG Labtech). […]
Measurement Type: inhibition at 0.123 µM (%)

{"Molecule": "Cc1ccccc1CSc1nn([C@@H]2O[C@H](COS(N)(=O)=O)[C@@H](O)[C@H]2O)c2ncnc(N)c12", "Assay Value": 75}
{"Molecule": "Nc1ncnc2c1c(OCc1ccccc1)nn2[C@@H]1O[C@H](COS(N)(=O)=O)[C@@H](O)[C@H]1O", "Assay Value": 31}
{"Molecule": "Nc1ncnc2c1c(Sc1ccc(Cl)cc1)nn2[C@@H]1O[C@H](COS(N)(=O)=O)[C@@H](O)[C@H]1O", "Assay Value": 84}
{"Molecule": "Nc1ncnc2c1c(SC1CC1)nn2[C@@H]1O[C@H](COS(N)(=O)=O)[C@@H](O)[C@H]1O", "Assay Value": 89}
{"Molecule": "COc1nn([C@@H]2O[C@H](COS(N)(=O)=O)[C@@H](O)[C@@H]2F)c2ncnc(N)c12", "Assay Value": 42}
{"Molecule": "COC(=O)c1nn([C@@H]2O[C@H](COS(N)(=O)=O)C(O)C2O)c2ncnc(N)c12 (stereo in doubt)", "Assay Value": 45}
{"Molecule": "Nc1ncnc2c1c(SC1CCCC1)nn2[C@@H]1O[C@H](COS(N)(=O)=O)[C@@H](O)[C@H]1O", "Assay Value": 89}
{"Molecule": "N#Cc1nn([C@@H]2O[C@H](COS(N)(=O)=O)[C@@H](O)[C@H]2O)c2ncnc(N)c12", "Assay Value": 80}
{"Molecule": "Nc1ncnc2c1c(SC1CNC1)nn2[C@@H]1O[C@H](COS(N)(=O)=O)[C@@H](O)[C@H]1O", "Assay Value": 65}
{"Molecule": "CN(C)CCSc1nn([C@@H]2O[C@H](COS(N)(=O)=O)[C@@H](O)[C@H]2O)c2ncnc(N)c12", "Assay Value": 51}
{"Molecule": "Nc1ncnc2c1c(I)nn2[C@@H]1O[C@H](COS(N)(=O)=O)[C@@H](O)[C@H]1O", "Assay Value": 85}
{"Molecule": "Nc1ncnc2c1c(Sc1cccc(Cl)c1)nn2[C@@H]1O[C@H](COS(N)(=O)=O)[C@@H](O)[C@H]1O", "Assay Value": 85}
{"Molecule": "Nc1ncnc2c1c(Sc1ccncc1)nn2[C@@H]1O[C@H](COS(N)(=O)=O)[C@@H](O)[C@H]1O", "Assay Value": 68}
{"Molecule": "N#CCc1nn([C@@H]2O[C@H](COS(N)(=O)=O)[C@@H](O)[C@H]2O)c2ncnc(N)c12", "Assay Value": 26}
